# Organism: Homo sapiens
# test.description: Selectivity index, ratio of IC50 for human recombinant monoamine oxidase-A to IC50 for human recombinant monoamine oxidase-B
readout.label: Ratio IC50

A. O=C1OCc2ccc(OCc3cccc(Br)c3)cc21
B. Cc1ccc(COc2ccc3c(c2)C(=O)OC3)cc1
Hi, I'm comparing A with B and wondering which one has the bigger number for Ratio IC50. Any idea? Kindly give the label for the entry you pick.
A

* * *

# study.system: Amine oxidase [flavin-containing] B (Homo sapiens, UniProt P27338)
# Sequence (P27338 whole entry): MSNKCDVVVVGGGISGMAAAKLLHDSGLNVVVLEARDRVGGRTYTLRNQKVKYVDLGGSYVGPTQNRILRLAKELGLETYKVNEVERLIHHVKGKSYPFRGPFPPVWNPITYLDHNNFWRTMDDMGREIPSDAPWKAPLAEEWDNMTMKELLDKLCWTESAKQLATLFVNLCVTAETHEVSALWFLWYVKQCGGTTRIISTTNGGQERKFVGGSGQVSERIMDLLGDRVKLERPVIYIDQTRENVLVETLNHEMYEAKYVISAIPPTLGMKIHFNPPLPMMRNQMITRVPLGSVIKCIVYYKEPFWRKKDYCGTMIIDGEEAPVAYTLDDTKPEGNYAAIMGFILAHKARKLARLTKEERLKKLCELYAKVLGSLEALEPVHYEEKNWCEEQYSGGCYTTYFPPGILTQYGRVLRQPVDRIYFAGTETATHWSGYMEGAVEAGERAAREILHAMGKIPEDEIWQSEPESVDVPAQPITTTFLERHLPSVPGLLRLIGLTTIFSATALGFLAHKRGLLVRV
# test.description: Inhibition of human recombinant monoamine oxidase-B assessed as kynuramine conversion to 6-hydroxyquinoline after 20 mins by fluorescence spectrophotometric analysis
readout.label: IC50 (nM)

Some compounds with known IC50 results, for comparison:
O=C1OCc2ccc(OCCOc3ccc(Cl)cc3)cc21
11
O=C1OCc2ccc(OCc3ccc(Cl)cc3)cc21
2.8
O=C1OCc2ccc(OCc3cccc(Br)c3)cc21
3.5
O=C1OCc2ccc(OCCOc3ccc(Br)cc3)cc21
12
O=C1OCc2ccc(OCCOc3ccc(F)cc3)cc21
7.4

1. Cc1ccc(COc2ccc3c(c2)C(=O)OC3)cc1
2. O=C1OCc2ccc(OCc3ccccc3)cc21
3. O=C1OCc2ccc(OCCc3ccccc3)cc21
// sort entries: IC50, high to low Order the labels as requested and give them as your answer.
3, 2, 1
